- assay remarks: total protein half-life in vivo (active degradation + dilution); higher = more stable protein
- run parameters: wild type E. coli NCM3722; growth: P-lim chemostat; doubling time 6 h
value type: total protein half-life in vivo (h)
Give the value, in units of h, as a plain number.

MKILVDENMPYARDLFSRLGEVTAVPGRPIPVAQLADADALMVRSVTKVNESLLAGKPIKFVGTATAGTDHVDEAWLKQAGIGFSAAPGCNAIAVVEYVFSSLLMLAERDGFSLYDRTVGIVGVGNVGRRLQARLEALGIKTLLCDPPRADRGDEGDFRSLDELVQRADILTFHTPLFKDGPYKTLHLADEKLIRSLKPGAILINACRGAVVDNTALLTCLNEGQKLSVVLDVWEGEPELNVELLKKVDIGTSHIAGYTLEGKARGTTQVFEAYSKFIGHEQHVALDTLLPAPEFGRITLHGPLDQPTLKRLVHLVYDVRRDDAPLRKVAGIPGEFDKLRKNYLERREWSSLYVICDDASAASLLCKLGFNAVHHPAR :: 5.71

Here's the next entry for you.
Input line: Recorded total protein half-life in vivo for MQKEQLSALMDGETLDSELLNELAHNPEMQKTWESYHLIRDSMRGDTPEVLHFDISSRVMAAIEEEPVRQPATLIPEAQPAPHQWQKMPFWQKVRPWAAQLTQMGVAACVSLAVIVGVQHYNGQSETSQQPETPVFNTLPMMGKASPVSLGVPSEATANNGQQQQVQEQRRRINAMLQDYELQRRLHSEQLQFEQAQTQQAAVQVPGIQTLGTQSQ [P0AFX7] , please?
Output line: 0.801
